From: ChEMBL document CHEMBL1140715

- experiment notes: Induction of intracellular iron mobilization in human […] cells relative to control
- Type: functional
- Set-up: concentration or dose not given beside the values
Catalogue of compounds with associated Activity
result type: Activity (%)

# compound, unit, data value
rows = [
    ("C/C(=N\\NC(=O)c1cccc(Br)c1)c1cnccn1", "%", 31),
    ("O=C(N/N=C/c1c(O)ccc2ccccc12)c1ccncc1", "%", 44),
    ("C/C(=N\\NC(=O)c1ccc(O)cc1)c1cnccn1", "%", 39),
    ("C/C(=N\\NC(=O)c1ccc(Br)cc1)c1cnccn1", "%", 31),
    ("C/C(=N\\NC(=O)c1cccs1)c1cnccn1", "%", 31),
    ("C/C(=N\\NC(=O)c1ccc([N+](=O)[O-])cc1)c1cnccn1", "%", 31),
    ("Cc1ncc(CO)c(/C=N/NC(=O)c2ccncc2)c1O [PYRIDOXAL ISONICOTINOYL HYDRAZONE]", "%", 40),
    ("C/C(=N\\NC(=O)c1ccncc1)c1cnccn1", "%", 31),
    ("C/C(=N\\NC(=O)c1ccccc1)c1cnccn1 [METHYL PYRAZINYLKETONE BENZOYL HYDRAZONE]", "%", 31),
    ("C/C(=N\\NC(=O)c1ccc(C(F)(F)F)cc1)c1cnccn1", "%", 31),
    ("C/C(=N\\NC(=O)c1ccc(N)cc1)c1cnccn1", "%", 34),
    ("CC(=O)N(O)CCCCCNC(=O)CCC(=O)N(O)CCCCCNC(=O)CCC(=O)N(O)CCCCCN", "%", 16),
]
